The reported measurements were obtained from patent US9802921B2.

biological target: Human CaV2.2 channels (Homo sapiens); construct: expressed in transfected cells; assay: Fluorescent assay for CaV2.2 channels using potassium depolarization to induce channel opening (FLIPR, Fluo 4); type: cell-based; settings: read-out: Activity Category: %-Inhib (CaV2.2) @3 μM @30 mM KCl; 3 μM test compound; 30 mM KCl as printed; HEK293 cells stably expressing human CaV2.2
endpoint: inhibition at 3 µM

Below, each entry is followed by its recorded inhibition at 3 µM result.
Cc1cc(Cn2c(C(=O)N(C)C(C)C)c(-c3ccc(Cl)cc3)c(C)c2C(F)(F)F)on1: > 95%
Cc1c(-c2ccc(Cl)cc2)c(C(=O)N2CCOCC2)n(Cc2cn(C)nn2)c1C(F)(F)F: 40 to 75%
Cc1c(-c2ccc(Cl)cc2)c(C(=O)N(C)CCS(C)(=O)=O)n(Cc2cncn2C)c1C(F)(F)F: 40 to 75%
Cc1c(-c2ccc(Cl)cc2)c(C(=O)NC2CC2)n(Cc2ncccn2)c1C(F)(F)F: 40 to 75%
Cc1c(-c2ccc(Cl)cc2)c(C(=O)N(C)C(C)C)n(Cc2nncs2)c1C(F)(F)F: > 95%
Cc1c(-c2ccc(Cl)cc2)c(C(=O)N2CCS(=O)(=O)CC2)n(Cc2cn(C)cn2)c1C(F)(F)F: 40 to 75%
CN(CC(C)(C)C)C(=O)c1c(-c2ccc(Cl)cc2)cc(C(F)(F)F)n1Cc1nncn1C: 40 to 75%
Cc1c(-c2ccc(Cl)cc2)c(C(=O)N2CCOCC2)n(Cc2cncnc2)c1C(F)(F)F: 40 to 75%

Consider the compound `Cc1cnc(Cn2c(C(=O)N3CCOCC3)c(-c3ccc(Cl)cc3)c(C)c2C(F)(F)F)cn1` and give its measured inhibition at 3 µM.
> 95%

Need inhibition at 3 µM of `Cc1c(-c2ccc(Cl)cc2)c(C(=O)N(C)CCS(C)(=O)=O)n(Cc2ccc(F)cn2)c1C(F)(F)F` , thanks.
> 95%

Give its inhibition at 3 µM value. Item: `Cc1cnc(Cn2c(C(=O)N3CCOCC3)c(-c3ccc(Cl)cc3)c(C)c2C(F)(F)F)nc1`
> 95%

Given the compound `CCc1cc(Cn2c(C(=O)N(C)CCS(C)(=O)=O)c(-c3ccc(Cl)cc3)c(C)c2C(F)(F)F)on1` , what is its reported inhibition at 3 µM?
> 95%

Fill in the blank: the reported inhibition at 3 µM of `Cc1c(-c2ccc(Cl)cc2)c(C(=O)N2CCOC(C)(C)C2)n(Cc2ncccn2)c1C(F)(F)F` is ____.
75 to 95%

Bench note: what inhibition at 3 µM did `CN(CC(C)(C)C)C(=O)c1c(-c2ccc(Cl)cc2)cc(C(F)(F)F)n1Cc1nccn1C` show?
75 to 95%

----------
target: Human CaV2.2 channels (Homo sapiens); construct: expressed in transfected cells; experiment: Fluorescent assay for CaV2.2 channels using potassium depolarization to induce channel opening (FLIPR, Fluo 4); format: cell-based; details: read-out: Activity Category: %-Inhib (CaV2.2) @3 μM @30 mM KCl; 3 μM test compound; 30 mM KCl as printed; HEK293 cells stably expressing human CaV2.2
endpoint: inhibition at 3 µM

Here's what some known entries look like.
Cc1cc(Cn2c(C(=O)N(C)C(C)C)c(-c3ccc(Cl)cc3)c(C)c2C(F)(F)F)no1 [Example 068]: > 95%
Cc1c(-c2ccc(Cl)cc2)c(C(=O)N2CCOCC2)n(Cc2ncccn2)c1C(F)(F)F [Example 047]: > 95%
Cc1cc(CN(C)C(=O)c2c(-c3ccc(Cl)cc3F)c(C)c(C(F)(F)F)n2Cc2ncccn2)no1 [Example 066]: > 95%
Cc1c(-c2ccc(Cl)cc2)c(C(=O)N2CCOCC2)n(Cc2ccnn2C)c1C(F)(F)F [Example 016]: 75 to 95%

Param item = Cc1c(-c2ccc(Cl)cc2)c(C(=O)N2CCOCC2)n(Cc2ccc[nH]c2=O)c1C(F)(F)F [Example 053] ; retrieve measured inhibition at 3 µM.
40 to 75%

----------
inhibition at 3 µM listing for selected compounds.
target: Human CaV2.2 channels (Homo sapiens, UniProt Q00975); construct: expressed in transfected cells; test: Fluorescent assay for CaV2.2 channels using potassium depolarization to induce channel opening (FLIPR, Fluo 4); assay type: cell-based; details: read-out: Activity Category: %-Inhib (CaV2.2) @3 μM @30 mM KCl; 3 μM test compound; 30 mM KCl as printed; HEK293 cells stably expressing human CaV2.2
Sequence (Q00975 whole entry): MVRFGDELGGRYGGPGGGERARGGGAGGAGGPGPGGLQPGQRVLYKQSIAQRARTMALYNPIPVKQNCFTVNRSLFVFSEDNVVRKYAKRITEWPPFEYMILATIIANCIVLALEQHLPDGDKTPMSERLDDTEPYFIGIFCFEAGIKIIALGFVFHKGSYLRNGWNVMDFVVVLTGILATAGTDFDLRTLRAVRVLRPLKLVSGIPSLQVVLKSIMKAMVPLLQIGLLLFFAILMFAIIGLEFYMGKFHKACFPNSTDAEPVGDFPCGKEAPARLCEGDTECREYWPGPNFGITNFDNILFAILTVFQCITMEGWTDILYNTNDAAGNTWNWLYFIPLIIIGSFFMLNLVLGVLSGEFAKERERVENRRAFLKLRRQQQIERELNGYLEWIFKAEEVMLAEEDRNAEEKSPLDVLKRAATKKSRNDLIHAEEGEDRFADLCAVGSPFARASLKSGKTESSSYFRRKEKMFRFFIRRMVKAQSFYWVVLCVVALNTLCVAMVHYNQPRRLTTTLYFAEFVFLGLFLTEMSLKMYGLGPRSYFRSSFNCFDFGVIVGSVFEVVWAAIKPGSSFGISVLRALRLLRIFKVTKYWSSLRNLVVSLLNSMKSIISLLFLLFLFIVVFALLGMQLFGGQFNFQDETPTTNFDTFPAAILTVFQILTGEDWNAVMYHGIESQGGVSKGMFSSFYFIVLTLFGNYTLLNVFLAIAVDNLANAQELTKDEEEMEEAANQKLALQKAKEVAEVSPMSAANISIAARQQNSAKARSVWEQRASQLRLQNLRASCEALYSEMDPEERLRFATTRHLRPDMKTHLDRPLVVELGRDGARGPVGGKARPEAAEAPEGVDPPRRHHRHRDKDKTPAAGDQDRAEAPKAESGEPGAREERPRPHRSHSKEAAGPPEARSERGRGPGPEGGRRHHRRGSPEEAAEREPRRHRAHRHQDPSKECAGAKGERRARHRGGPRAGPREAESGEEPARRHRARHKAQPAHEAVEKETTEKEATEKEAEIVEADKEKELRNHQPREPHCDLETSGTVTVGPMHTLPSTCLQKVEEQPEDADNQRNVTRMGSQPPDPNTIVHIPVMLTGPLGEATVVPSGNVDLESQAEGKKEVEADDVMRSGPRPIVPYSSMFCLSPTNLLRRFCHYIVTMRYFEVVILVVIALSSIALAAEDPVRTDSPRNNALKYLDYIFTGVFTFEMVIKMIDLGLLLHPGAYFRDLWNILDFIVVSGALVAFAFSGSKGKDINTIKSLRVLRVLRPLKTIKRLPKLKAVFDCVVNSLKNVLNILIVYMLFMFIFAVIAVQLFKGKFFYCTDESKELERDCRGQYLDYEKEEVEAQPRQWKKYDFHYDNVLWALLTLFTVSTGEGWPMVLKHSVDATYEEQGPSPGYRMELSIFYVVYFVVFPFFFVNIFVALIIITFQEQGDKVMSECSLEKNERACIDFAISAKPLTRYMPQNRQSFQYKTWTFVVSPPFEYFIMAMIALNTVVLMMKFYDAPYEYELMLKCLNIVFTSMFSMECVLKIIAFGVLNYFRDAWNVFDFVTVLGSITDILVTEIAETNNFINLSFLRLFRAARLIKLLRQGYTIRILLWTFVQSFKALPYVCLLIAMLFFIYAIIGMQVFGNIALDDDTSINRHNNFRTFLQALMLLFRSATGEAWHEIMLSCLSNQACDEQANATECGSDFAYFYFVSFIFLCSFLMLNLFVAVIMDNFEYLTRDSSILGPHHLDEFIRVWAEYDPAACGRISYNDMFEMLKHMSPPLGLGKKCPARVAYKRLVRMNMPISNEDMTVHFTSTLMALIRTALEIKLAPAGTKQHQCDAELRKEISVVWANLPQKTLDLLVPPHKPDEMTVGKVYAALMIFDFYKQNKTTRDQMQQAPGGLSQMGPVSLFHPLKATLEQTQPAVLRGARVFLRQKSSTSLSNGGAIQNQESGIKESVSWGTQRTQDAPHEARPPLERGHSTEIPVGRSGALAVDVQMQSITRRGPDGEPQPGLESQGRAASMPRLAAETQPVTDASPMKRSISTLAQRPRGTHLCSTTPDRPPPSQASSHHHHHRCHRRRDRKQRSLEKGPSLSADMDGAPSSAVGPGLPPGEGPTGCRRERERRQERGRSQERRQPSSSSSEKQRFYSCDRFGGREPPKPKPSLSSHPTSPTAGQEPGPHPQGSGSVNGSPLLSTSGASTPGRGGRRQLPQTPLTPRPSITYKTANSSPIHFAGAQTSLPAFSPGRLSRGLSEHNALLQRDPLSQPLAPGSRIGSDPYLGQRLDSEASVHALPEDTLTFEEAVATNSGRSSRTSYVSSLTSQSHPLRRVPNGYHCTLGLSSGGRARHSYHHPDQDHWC
Sequence (P54289 25-1103, further chain): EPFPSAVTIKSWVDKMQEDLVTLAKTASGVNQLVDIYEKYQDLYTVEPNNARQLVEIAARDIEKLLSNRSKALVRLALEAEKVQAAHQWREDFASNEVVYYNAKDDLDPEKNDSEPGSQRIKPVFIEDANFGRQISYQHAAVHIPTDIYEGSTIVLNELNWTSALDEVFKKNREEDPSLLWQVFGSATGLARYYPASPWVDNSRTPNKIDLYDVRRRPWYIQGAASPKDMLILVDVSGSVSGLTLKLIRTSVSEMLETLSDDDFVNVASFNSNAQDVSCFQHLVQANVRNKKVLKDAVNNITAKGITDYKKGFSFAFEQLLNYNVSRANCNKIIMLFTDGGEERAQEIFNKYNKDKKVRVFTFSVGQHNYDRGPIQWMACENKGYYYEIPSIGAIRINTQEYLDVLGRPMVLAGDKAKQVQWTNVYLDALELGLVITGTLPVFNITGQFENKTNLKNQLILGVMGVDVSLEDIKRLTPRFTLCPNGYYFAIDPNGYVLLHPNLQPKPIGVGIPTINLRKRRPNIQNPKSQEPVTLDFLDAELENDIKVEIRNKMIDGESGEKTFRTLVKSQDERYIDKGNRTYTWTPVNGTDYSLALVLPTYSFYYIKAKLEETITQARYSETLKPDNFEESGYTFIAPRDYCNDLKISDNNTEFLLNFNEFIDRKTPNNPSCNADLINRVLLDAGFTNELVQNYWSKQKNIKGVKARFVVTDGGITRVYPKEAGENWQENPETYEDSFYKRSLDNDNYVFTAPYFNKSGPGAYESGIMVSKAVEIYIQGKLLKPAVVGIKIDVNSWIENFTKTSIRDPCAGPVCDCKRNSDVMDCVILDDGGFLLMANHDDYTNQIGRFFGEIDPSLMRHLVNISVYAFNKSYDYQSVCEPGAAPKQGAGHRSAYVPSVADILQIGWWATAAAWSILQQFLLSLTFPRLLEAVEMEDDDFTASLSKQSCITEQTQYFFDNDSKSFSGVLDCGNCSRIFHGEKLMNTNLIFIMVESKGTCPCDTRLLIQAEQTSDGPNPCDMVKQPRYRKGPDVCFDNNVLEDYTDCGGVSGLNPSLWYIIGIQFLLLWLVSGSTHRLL
Sequence (P54284 whole entry, further chain): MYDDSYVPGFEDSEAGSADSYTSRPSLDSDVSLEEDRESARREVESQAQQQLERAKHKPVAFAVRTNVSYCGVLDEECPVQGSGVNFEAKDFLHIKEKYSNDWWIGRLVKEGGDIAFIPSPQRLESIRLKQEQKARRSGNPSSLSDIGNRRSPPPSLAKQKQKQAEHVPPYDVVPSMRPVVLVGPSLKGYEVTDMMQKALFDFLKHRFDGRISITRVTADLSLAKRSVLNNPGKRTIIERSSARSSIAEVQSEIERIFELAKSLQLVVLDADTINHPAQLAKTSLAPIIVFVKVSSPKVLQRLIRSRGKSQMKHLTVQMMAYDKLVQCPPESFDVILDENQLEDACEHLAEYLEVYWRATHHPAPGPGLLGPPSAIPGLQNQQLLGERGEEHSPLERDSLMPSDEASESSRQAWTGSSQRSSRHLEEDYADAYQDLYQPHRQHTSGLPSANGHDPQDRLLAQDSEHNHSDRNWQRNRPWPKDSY

# query: inhibition at 3 µM of entry `Cc1c(-c2ccc(Cl)cc2)c(C(=O)N2CCOCC2)n(Cc2ncn[nH]2)c1C(F)(F)F`
40 to 75%

What measured inhibition at 3 µM goes with `Cc1cnc(Cn2c(C(F)(F)F)cc(-c3ccc(Cl)cc3)c2C(=O)N(C)CC(C)(C)C)cn1` ?
> 95%

State the recorded inhibition at 3 µM for this entry: `Cc1ncc(Cn2c(C(F)(F)F)cc(-c3ccc(Cl)cc3)c2C(=O)N(C)CC(C)(C)C)cn1`
75 to 95%

GET /values?readout=inhibition at 3 µM&item= `Cc1c(-c2ccc(Cl)cc2)c(C(=O)N2CCOCC2)n(Cc2ccc(F)cn2)c1C(F)(F)F`
> 95%

Fill in: inhibition at 3 µM of `Cc1c(-c2ccc(Cl)cc2)c(C(=O)N2CC(F)(F)C2)n(-c2cnccn2)c1C(F)(F)F` is ___
75 to 95%

Dear colleague, I am looking for the recorded inhibition at 3 µM of the following compound: `Cc1c(-c2ccc(Cl)cc2)c(C(=O)N2CCOCC2)n(Cc2cccc(=O)[nH]2)c1C(F)(F)F`
75 to 95%

Name the recorded inhibition at 3 µM for `Cc1noc(Cn2c(C(=O)N(C)CCS(C)(=O)=O)c(-c3ccc(Cl)cc3)c(C)c2C(F)(F)F)n1` .
75 to 95%

----------
inhibition at 3 µM: recorded values
target: Human CaV2.2 channels (Homo sapiens, UniProt Q00975); construct: expressed in transfected cells; assay: Fluorescent assay for CaV2.2 channels using potassium depolarization to induce channel opening (FLIPR, Fluo 4); format: cell-based; conditions: read-out: Activity Category: %-Inhib (CaV2.2) @3 μM @30 mM KCl; 3 μM test compound; 30 mM KCl as printed; HEK293 cells stably expressing human CaV2.2

Cc1nnc(Cn2c(C(F)(F)F)cc(-c3ccc(Cl)cc3)c2C(=O)N(C)CC(C)(C)C)o1 [Example 014]: 75 to 95%

Lab note: need inhibition at 3 µM with Human CaV2.2 channels (Homo sapiens, UniProt Q00975) for entry Cc1c(-c2ccc(Cl)cc2)c(C(=O)N2CC(C)(O)C2)n(-c2cnccn2)c1C(F)(F)F [Example 051] , please look it up.
40 to 75%

Entry Cc1c(-c2ccc(Cl)cc2)c(C(=O)N2CCOCC2)n(Cc2cnn(C)c2)c1C(F)(F)F [Example 023] , system Human CaV2.2 channels (Homo sapiens, UniProt Q00975): what inhibition at 3 µM was measured?
> 95%

Query inhibition at 3 µM on Human CaV2.2 channels (Homo sapiens, UniProt Q00975) for CC1(C)CN(C(=O)c2c(-c3ccc(F)cc3)cc(C(F)(F)F)n2Cc2ncccn2)CCO1 [Example 031]
40 to 75%

Reported inhibition at 3 µM for Human CaV2.2 channels (Homo sapiens, UniProt Q00975), given Cc1noc(Cn2c(C(F)(F)F)cc(-c3ccc(Cl)cc3)c2C(=O)N(C)CC(C)(C)C)n1 [Example 011] ?
> 95%

Quick check: inhibition at 3 µM on Human CaV2.2 channels (Homo sapiens, UniProt Q00975), item COc1cccc(Cn2c(C(=O)N3CCOCC3)c(-c3ccc(Cl)cc3)c(C)c2C(F)(F)F)n1 [Example 041] ?
> 95%

Query the reported inhibition at 3 µM for Human CaV2.2 channels (Homo sapiens, UniProt Q00975); item: Cc1noc(Cn2c(C(F)(F)F)cc(-c3ccc(F)cc3)c2C(=O)N(C)C(C)C)n1 [Example 065]
75 to 95%

// fetch Human CaV2.2 channels (Homo sapiens, UniProt Q00975) inhibition at 3 µM for Cc1c(-c2ccc(Cl)cc2)c(C(=O)N(C)CCS(C)(=O)=O)n(Cc2nccn2C)c1C(F)(F)F [Example 002]
40 to 75%

----------
target: Human CaV2.2 channels (Homo sapiens); construct: expressed in transfected cells; experiment: Fluorescent assay for CaV2.2 channels using potassium depolarization to induce channel opening (FLIPR, Fluo 4); assay type: cell-based; conditions: read-out: Activity Category: %-Inhib (CaV2.2) @3 μM @30 mM KCl; 3 μM test compound; 30 mM KCl as printed; HEK293 cells stably expressing human CaV2.2
# inhibition at 3 µM annotations

Example entries and their recorded answers appear below.
Cc1c(-c2ccc(Cl)cc2)c(C(=O)N2CCOCC2)n(Cn2ccccc2=O)c1C(F)(F)F: 75 to 95%
Cc1c(-c2ccc(Cl)cc2F)c(C(=O)N2CCOCC2)n(Cc2ncccn2)c1C(F)(F)F: > 95%
CN(CC(C)(C)C)C(=O)c1c(-c2ccc(Cl)cc2)cc(C(F)(F)F)n1Cc1cncn1C: 75 to 95%

Could you now look at the following compound, please?
inhibition at 3 µM of `Cc1nc(Cn2c(C(F)(F)F)cc(-c3ccc(Cl)cc3)c2C(=O)N(C)CC(C)(C)C)no1` on Human CaV2.2 channels (Homo sapiens)?
> 95%
